IL-2, % of BMS, at 3.703703704 ug/mL reference
target: T1, human LAG3 expressed on cells (human, UniProt P18627 23-525)
T1 sequence (looked up): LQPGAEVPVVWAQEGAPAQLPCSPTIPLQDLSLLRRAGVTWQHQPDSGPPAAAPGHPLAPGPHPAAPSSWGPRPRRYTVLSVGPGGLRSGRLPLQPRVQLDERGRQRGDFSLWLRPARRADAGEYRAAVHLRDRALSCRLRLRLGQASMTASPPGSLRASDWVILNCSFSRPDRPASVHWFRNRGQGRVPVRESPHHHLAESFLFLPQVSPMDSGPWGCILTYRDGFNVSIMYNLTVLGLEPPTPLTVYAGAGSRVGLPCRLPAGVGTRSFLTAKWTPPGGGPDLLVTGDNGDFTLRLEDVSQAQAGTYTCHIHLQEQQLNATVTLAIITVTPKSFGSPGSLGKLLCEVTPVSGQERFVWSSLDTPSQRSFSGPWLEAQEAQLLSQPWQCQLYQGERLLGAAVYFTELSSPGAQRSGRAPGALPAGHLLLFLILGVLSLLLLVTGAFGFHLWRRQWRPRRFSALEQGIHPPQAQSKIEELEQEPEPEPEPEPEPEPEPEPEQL
procedure-text: cell-based or functional assay
quantity: IL-2, % of BMS, at 3.703703704 ug/mL

* sdAb No. 18 (VHH, Fc of the tested form not described; also called sdAb 18; not shown: Fc part implied by anti-human Fc capture) VHH: QVQLVESGGGLVQPGGSLRLSCAASGFTLNEHAIGWFRRAPGKEREGVSCISSSDGSTYYHDSVKGRFNMSRDDAKNSVYLQMSSLKPEDTAIYYCAAALGRDCQGGQWKTSSWGQGTQVTVSS | 35.1%
* sdAb No. 73 (VHH, Fc not described; also called sdAb 73; not shown: Fc part implied by anti-human Fc capture) VHH: QVQLVESGGGLVQPGGSLKLSCTASGFTLDYYAIAWFRQAPGKEREAVSCISSSDGSTRYADSVKGRFTISRDNAKNTVYLQMNSLKPEDTAVYYCAADPYGDCRGPYDYWGQGTQVTVSS | 24.5%
* sdAb No. 20 (VHH, Fc of the tested form not described; also called sdAb 20; not shown: Fc part implied by anti-human Fc capture) VHH: QVQLVESGGGLVQPGGSLRLSCAASGLTLDGYAVGWFRQAPGKDREGLSCISGSDGSTHYLDSVKGRFTISRDNAKSTMALQMNSLQFGDTAIYYCAARRGSCSGSWTYWGQGTQVTVSS | 38%

Data provenance: patent US20230303690A1
